src = patent US20230416261A1

molecular target: PRMT1 (Homo sapiens); assay: PRMT1 RKO Cellular Target Engagement Assay (In-Cell Western, asymmetric di-methyl arginine); assay type: cell-based; details: RKO cells, 48 hr compound incubation; read-out: RKO IC50 (PRMT-1 Target Engagement)
pIC50: −log10 of the molar value.
quantity: pIC50

Example entries and their recorded answers appear below.
1) CNCCN(C)Cc1nn2c(c1C1CCC(COC)(COC)CC1)CN(C(=O)C1CC(C(F)(F)F)C1)CC2 (stereo not drawn) ... 6.85
2) CNCCN(C)Cc1nn2c(c1C1CCC(COC)(COC)CC1)CN(C(=O)C1CCC1(F)F)CC2 (stereo not drawn) ... 6.44
3) CNCCN(C)Cc1nn2c(c1C1CCC(COC)(COC)CC1)CN(C(=O)C1CCC(OC)CC1)CC2 (stereo not drawn) ... 5.85

(a) CNCCN(C)Cc1nn2c(c1C1CCC(COC)(COC)CC1)CN(C(=O)C13CC(C)(C1)C3)CC2
(b) COCC1(COC)CCC(c2c(CN(C)CCN)nn3c2CN(C(=O)C2(F)CCC2)CC3)CC1
[in] Between the entries labelled a and b , which has a larger pIC50 value on record? // caller expects the label of the chosen entry
[out] b
(b: 6.48, a: 6.21)

* * *

Tested on: DOHH2 cells
Assay: DOHH2 Long Term Phenotypic Assay (7 days, Cell Titer-Glo viability)
Format: cell-based
Details: Homo sapiens, DOHH-2, 168 h, Cell Titer-Glo 2.0
Procedure: DOHH2 cells were kindly provided by Michael Green (MDACC). […] Viability was assessed by a 30 μL addition of Cell Titer-Glo 2.0 (Promega, catalog #G9243). […] Luminescence was measured using a PerkinElmer Envision™ plate reader. IC50 values were calculated using a four-parameter logistic curve fit using Genedata Screener software.
quantity: pIC50
Note: pIC50 values are expressed as the negative base-10 logarithm of concentration in M.

1. CNCCN(C)Cc1nn2c(c1C1CCC(COC)(COC)CC1)CN(C(=O)COC)CC2 ... 6.80
2. CCOCC1(COCC)CCC(c2c(CN(C)CCNC)nn3c2CN(C(=O)C2CC2)CC3)CC1 ... 7.33
3. CNCCN(C)Cc1nn2c(c1C1CCC(COC)(COC)CC1)CN(C(=O)C1(C#N)CC1)CC2 ... 6.68
4. CNCCN(C)Cc1nn2c(c1C1CCC(COC)(COC)CC1)CN(C(=O)CC#N)CC2 ... 6.29
5. CNCCN(C)Cc1nn2c(c1C1CCC(COC)(COC)CC1)CN(C(=O)C1CCC(F)(F)C1)CC2 (stereo not shown) ... 7.08

The compound listed as CNCCN(C)Cc1nn2c(c1C1CCC(COC)(COC)CC1)CN(C(=O)C1CCOC1)CC2 (stereo not shown) has a reported pIC50 of 6.67

Entry CNCCN(C)Cc1nn2c(c1C1CCC(COC)(COC)CC1)CN(C(=O)CC1CCC1)CC2 — recorded pIC50 = 7.09

* * *

molecular target: PRMT1 (Homo sapiens); test: PRMT1 Enzymatic Assay (LANCE TR-FRET, methylation of histone H4 at Arg3); format: biochemical; design: purchased SignalChem P365-380G; conditions: PRMT1 1.5 nM, SAM 1 μM, biotinylated histone H4 (1-21) 25 nM; read-out: PRMT-1 IC50
quantity: IC50 (nM)

Examples with answers:
1) CCC(C)C(=O)N1CCn2nc(CN(C)CCNC)c(C3CCC(COC)(COC)CC3)c2C1 (stereo not shown) [Example 65] ... 70
2) CNCCN(C)Cc1nn2c(c1C1CCC(COC)(COC)CC1)CN(C(=O)C1CC(F)(F)C1)CC2 [Example 53] ... 68
3) COCC1(COC)CCC(c2c(CN(C)CCN)nn3c2CN(C(=O)C2COC2)CC3)CC1 [Example 12] ... 23

(I) COCC1(COC)CCC(c2c(CN(C)CCN)nn3c2CN(C(=O)C24CC(F)(C2)C4)CC3)CC1 [Example 45]
(II) CNCCN(C)Cc1nn2c(c1C1CCC(COC)(COC)CC1)CN(C(=O)C1CCC1)CC2 [Example 1]
(III) CNCCN(C)Cc1nn2c(c1C1CCC(COC)(COC)CC1)CN(C(=O)C1CC(C)(C)C1)CC2 [Example 39]
(IV) CNCCN(C)Cc1nn2c(c1C1CCC(COC)(COC)CC1)CN(C(=O)CC1CCC1)CC2 [Example 60]
[in] Your job: order these 4 records by IC50, ascending. Sort and list the labels as requested.
[out] I, II, IV, III

* * *

biological target: PRMT1 (Homo sapiens); test: PRMT1 Enzymatic Assay (LANCE TR-FRET, methylation of histone H4 at Arg3); assay type: biochemical; design: purchased SignalChem P365-380G; details: PRMT1 1.5 nM, SAM 1 μM, biotinylated histone H4 (1-21) 25 nM; read-out: PRMT-1 IC50
pIC50: −log10 of the molar value.
quantity: pIC50

1) CNCCN(C)Cc1nn2c(c1C1CCC(COC)(COC)CC1)CN(C(=O)C1CCOC1(C)C)CC2 (centres unmarked) ... 6.93
2) CNCCN(C)Cc1nn2c(c1C1CCC(COC)(COC)CC1)CN(C(=O)C13CC(C#N)(C1)C3)CC2 ... 7.14
3) CNCCN(C)Cc1nn2c(c1C1CCC(COC)(COC)CC1)CN(C(=O)C1CCC(F)(F)CC1)CC2 ... 7.19

(1) CCOCC1(COCC)CCC(c2c(CN(C)CCNC)nn3c2CN(C(=O)C2CC2)CC3)CC1
(2) CNCCN(C)Cc1nn2c(c1C1CCC(COC)(COC)CC1)CN(C(=O)C(C)C(F)(F)F)CC2 (centres unmarked)
[in] Could you check which of 1 and 2 has a smaller value for pIC50? Respond using the label that marks the chosen record.
[out] 2

* * *

target: PRMT1 (Homo sapiens); assay: PRMT1 Enzymatic Assay (LANCE TR-FRET, methylation of histone H4 at Arg3); type: biochemical; design: purchased SignalChem P365-380G; details: PRMT1 1.5 nM, SAM 1 μM, biotinylated histone H4 (1-21) 25 nM; read-out: PRMT-1 IC50
pIC50: −log10 of the molar value.
quantity: pIC50

(A) CNCCN(C)Cc1nn2c(c1C1CCC(COC)(COC)CC1)CN(C(=O)C1CCC(F)(F)C1)CC2 (stereo not drawn) [Example 56]
(B) CNCCN(C)Cc1nn2c(c1C1CCC(COC)(COC)CC1)CN(C(=O)C1CCC(C)(C)O1)CC2 (stereo not drawn) [Example 79]
[in] Lab notebook, comparison: A versus B , higher pIC50 goes to which? Please respond with the label that marks your chosen entry.
[out] A

* * *

molecular target: PRMT1 (Homo sapiens, UniProt Q99873); assay: PRMT1 Enzymatic Assay (LANCE TR-FRET, methylation of histone H4 at Arg3); format: biochemical; parameters: purchased SignalChem P365-380G; conditions: PRMT1 1.5 nM, SAM 1 μM, biotinylated histone H4 (1-21) 25 nM; read-out: PRMT-1 IC50
Sequence (Q99873 whole entry): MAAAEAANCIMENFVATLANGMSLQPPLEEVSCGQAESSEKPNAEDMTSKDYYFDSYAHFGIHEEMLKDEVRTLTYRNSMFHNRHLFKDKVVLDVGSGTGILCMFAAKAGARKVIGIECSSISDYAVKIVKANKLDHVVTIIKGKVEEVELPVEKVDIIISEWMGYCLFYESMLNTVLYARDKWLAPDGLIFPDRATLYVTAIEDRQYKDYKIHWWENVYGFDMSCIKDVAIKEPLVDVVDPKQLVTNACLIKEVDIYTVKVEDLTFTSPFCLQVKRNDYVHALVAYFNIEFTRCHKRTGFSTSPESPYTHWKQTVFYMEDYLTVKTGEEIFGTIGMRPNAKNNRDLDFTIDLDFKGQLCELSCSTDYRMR
quantity: IC50 (nM)

Worked cases, answers included:
1) CNCCN(C)Cc1nn2c(c1C1CCC(COC)(COC)CC1)CN(C(=O)C(C)(C)O)CC2 ... 266
2) COCC1(COC)CCC(c2c(CN(C)CCN)nn3c2CN(C(=O)C2(F)CCC2)CC3)CC1 ... 13
3) CNCCN(C)Cc1nn2c(c1C1CCC(COC)(COC)CC1)CN(C(=O)C(C)(C)C)CC2 ... 36
4) CNCCN(C)Cc1nn2c(c1C1CCC(COC)(COC)CC1)CN(C(=O)COC)CC2 ... 81
5) CNCCN(C)Cc1nn2c(c1C1CCC(COC)(COC)CC1)CN(C(=O)C1(C(F)(F)F)CC1)CC2 ... 60

(P) COCC1(COC)CCC(c2c(CN(C)CCN)nn3c2CN(C(=O)C(C)(C)C(F)(F)F)CC3)CC1
(Q) CNCCN(C)Cc1nn2c(c1C1CCC(COC)(COC)CC1)CN(C(=O)CC#N)CC2
[in] Looking at recorded values for IC50, does P or Q come in lower? Kindly give the label for the entry you pick.
[out] P
(P: 44 nM, Q: 71 nM)
